Parameter pEC50: see the listing below.
Target: βA1-42 peptide (Homo sapiens, UniProt P05067)
Construct: βA1-42 peptide (1 mg/ml) was dissolved in H2O/CH3CN (1:1)
Sequence (P05067 672-713): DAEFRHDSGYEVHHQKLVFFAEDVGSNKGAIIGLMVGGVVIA
Assay: βA1-42 polymerization, Thioflavina T binding assay in 96 well plates
Conditions: concentrations between 0.8 and 100 μM, overnight at 37° C.; read-out: DE50 (the source's name)
Just so you know, pEC50 here is -log10 of the concentration in molar units; reply with that number alone.

Here are 4 compounds together with their reported answers.
INSERT INTO results (compound, experimental_readout, observed_result) VALUES
  ('Oc1ccc2ccccc2c1Cc1c(O)ccc2ccccc12', 'pEC50', 5.27),
  ('NCC(=O)Oc1ccc2ccccc2c1Cc1c(O)ccc2ccccc12', 'pEC50', 5.11),
  ('O=C(O)c1cc2ccccc2c(Cc2c([O-])c(C(=O)O)cc3ccccc23)c1[O-].[Na+].[Na+] [ST1641, sodium pamoate]', 'pEC50', 4.42),
  ('CC(=O)O[C@H](CC(=O)Oc1ccc2ccccc2c1Cc1c(O)ccc2ccccc12)C[N+](C)(C)C', 'pEC50', 5.10);

Attention now turns to another entry.
With βA1-42 peptide (Homo sapiens, UniProt P05067) as the test system, CC(=O)O[C@H](CC(=O)Oc1c(C(=O)O)cc2ccccc2c1Cc1c(O)c(C(=O)O)cc2ccccc12)C[N+](C)(C)C showed pEC50 of 4.04

The reported numbers originate from patent US20080293812A1.
